Reported IC50 by item:
# assaySystem: UniProt:P26663
# measurementDescription: HCV NS5B polymerase inhibition assay (streptavidin-coated FlashPlate, [α-33P]GTP incorporation)
# Assay type: biochemical

CS(=O)(=O)Nc1ccc2c(c1)S(=O)(=O)N=C(c1c(O)c3cccn3n(Cc3ccc(F)c(Cl)c3)c1=O)N2 < 100 nM

Now let's try a different one.
GET /value?item= CC(C)CCn1c(=O)c(C2=Nc3ccc(NS(C)(=O)=O)cc3S(=O)(=O)N2)c(O)c2cccn21 &field=IC50 returns < 100 nM

----------
# assaySystem: NS5B polymerase (Hepatitis C virus genotype 1b, UniProt P26663)
# Sequence (P26663 2420-3010): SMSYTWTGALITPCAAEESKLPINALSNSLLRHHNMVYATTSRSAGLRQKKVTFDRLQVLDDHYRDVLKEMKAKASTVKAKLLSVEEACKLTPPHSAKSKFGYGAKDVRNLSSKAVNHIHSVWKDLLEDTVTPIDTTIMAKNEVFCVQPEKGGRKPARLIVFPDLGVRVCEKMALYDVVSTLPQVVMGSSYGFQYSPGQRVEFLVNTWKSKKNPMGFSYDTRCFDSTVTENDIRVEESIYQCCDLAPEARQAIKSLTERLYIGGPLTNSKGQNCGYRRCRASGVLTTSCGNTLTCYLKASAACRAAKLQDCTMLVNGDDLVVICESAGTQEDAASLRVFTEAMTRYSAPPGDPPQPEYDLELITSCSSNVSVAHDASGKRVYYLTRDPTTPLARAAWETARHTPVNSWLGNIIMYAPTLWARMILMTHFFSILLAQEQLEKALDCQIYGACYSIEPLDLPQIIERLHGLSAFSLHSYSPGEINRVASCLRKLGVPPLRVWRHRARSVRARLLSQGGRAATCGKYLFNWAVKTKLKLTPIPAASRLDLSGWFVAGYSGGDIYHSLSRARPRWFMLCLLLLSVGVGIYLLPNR
# measurementDescription: HCV NS5B polymerase inhibition assay (streptavidin-coated FlashPlate, [α-33P]GTP incorporation)
# Format: biochemical
# conditionParameters: 20 nM enzyme, 75 min at 28° C.; read-out: NS5B Polymerase IC50
pIC50: −log10 of the molar value.
pIC50 values, listed per item

CC(C)CCn1c(=O)c(C2=CS(=O)(=O)c3cc(N(C)S(C)(=O)=O)ccc3N2)c(O)c2cccn21 5.52 to 7.00
CC(C)CCn1c(=O)c(C2=NS(=O)(=O)c3cc(N(C)S(C)(=O)=O)ccc3N2)c(O)c2cccn21 5.52 to 7.00
CC(C)(C)CCn1c(=O)c(C2=NS(=O)(=O)c3cc(NS(C)(=O)=O)ccc3N2)c(O)c2cccn21 > 7.00
CC(C)CCn1c(=O)c(C2=NS(=O)(=O)c3cc(NS(C)(=O)=O)ccc3N2)c(O)c2cc(F)cn21 > 7.00
CN(c1ccc2c(c1)S(=O)(=O)N=C(c1c(O)c3cccn3n(CCC(C)(C)C)c1=O)N2)S(C)(=O)=O > 7.00
CC(C)CCn1c(=O)c(C2=CS(=O)(=O)c3cc(NS(C)(=O)=O)ccc3N2)c(O)c2cccn21 > 7.00

Field: next compound
pIC50 reported for this compound COc1ccc2c(c1)S(=O)(=O)N=C(c1c(O)c3cccn3n(CCC(C)C)c1=O)N2 : 5.52 to 7.00
